Data provenance: ChEMBL document CHEMBL1201862

System: MCF7
Test Method Notes: NCI tumour cell line growth inhibition, 48 h
Active and inactive are the calls of the source. Cut-off read from the data, not from the text of the source: active = GI50 up to about 1.1 µM and inactive = higher.
Pick one and only one: active, inactive

Completed entries (count: 3):
INSERT INTO measurements (molecule, assayed_system, assigned_class) VALUES
  ('COc1ccc2c(c1)-c1nc(=S)n(CCN(C)C)c3ccc([N+](=O)[O-])c(c13)N2', 'MCF7', 'active'),
  ('c1cncc(C(Nc2cccc3cccnc23)Nc2cccc3cccnc23)c1', 'MCF7', 'inactive'),
  ('COc1ccc(COC(=O)NNC(=O)C2CSC(c3ccccc3)N2C(C)=O)cc1 (stereo not given)', 'MCF7', 'inactive');

Any idea what this test logged for COC(=O)C1(NC(=O)C(CC(=O)OCc2ccccc2)NC(=O)OCc2ccccc2)CCCCCCC1 (stereo not given) ? inactive

Hello, I am checking results. What call was entered for CN1CCC2(CC1)C(=O)N(N1CCCCCC1)C(=O)N2c1ccccc1 ? inactive

Give the logged outcome of this assay for the following molecule: CC1=C(C#N)S(=O)(=O)c2c(oc(C)c2C)N1 inactive

Which outcome was assigned to Cc1ncc([N+](=O)[O-])n1CCNS(=O)(=O)CCCn1ncnc1[N+](=O)[O-] in this test? inactive

Could you please tell me the result logged for CC(=O)NC1C(OCc2ccccc2)OC(CO)C(O)C1OCC(=O)N1CCCC1C(=O)N[C@@H](CCC(=O)NCCNCCNc1c2ccccc2nc2cccc([N+](=O)[O-])c12)C(N)=O (stereo not given in full) in this assay? active

In this assay, the call recorded for O=c1n(Cc2ccccc2)c(=O)n2c(=O)n(Cc3ccccc3)c(=O)n12 was what? inactive

Returns: the outcome recorded for O=C(O)CCc1ccc(-c2ccccc2)[nH]1 in this assay. inactive

Returns: the outcome recorded for CNC(=O)c1ccccc1-[s+]1c2ccccc2c(=O)n1C (stereo not given) in this assay. inactive
